# System: passive cutaneous anaphylaxis
# protocol.text: PCA test on the rat, oral administration before challenge with antigen
# Type: in vivo, rat (male Sprague Dawley)
# applied.conditions: oral 5 minutes before challenge / i.v. immediately before challenge
Checkbox rule: ED50 OS/ED50 iv lower than 4 = Met; ED50 OS/ED50 iv not lower than 4 = Not met.

| compound | answer.label |
| --- | --- |
| Cc1ccc(/C=C/C(=O)Nc2nn[nH]n2)o1 [VAL 47-073] | Met |
| Cc1ccc(/C=C/C(=O)Nc2nn[nH]n2)s1 [VAL 47-005] | Not met |
| Cc1ccc(/C=C\C(=O)Nc2nn[nH]n2)s1 [VAL 47-005cis] | Met |
| Cc1cccc(C(=O)Nc2nn[nH]n2)n1 [TA 57-07, reference compound] | Not met |
| O=C(/C=C/c1ccccn1)Nc1nn[nH]n1 [VAL 47-055] | Not met |
| Cc1ccc(/C=C\C(=O)Nc2nn[nH]n2)o1 [VAL 47-073cis] | Met |
